molecular target: rat insulin receptor isoform with exon 11 (rat) (UniProt P15127); assay: receptor binding, standard methods (FIG. 2)
Sequence (P15127 27-1383, stated change not applied): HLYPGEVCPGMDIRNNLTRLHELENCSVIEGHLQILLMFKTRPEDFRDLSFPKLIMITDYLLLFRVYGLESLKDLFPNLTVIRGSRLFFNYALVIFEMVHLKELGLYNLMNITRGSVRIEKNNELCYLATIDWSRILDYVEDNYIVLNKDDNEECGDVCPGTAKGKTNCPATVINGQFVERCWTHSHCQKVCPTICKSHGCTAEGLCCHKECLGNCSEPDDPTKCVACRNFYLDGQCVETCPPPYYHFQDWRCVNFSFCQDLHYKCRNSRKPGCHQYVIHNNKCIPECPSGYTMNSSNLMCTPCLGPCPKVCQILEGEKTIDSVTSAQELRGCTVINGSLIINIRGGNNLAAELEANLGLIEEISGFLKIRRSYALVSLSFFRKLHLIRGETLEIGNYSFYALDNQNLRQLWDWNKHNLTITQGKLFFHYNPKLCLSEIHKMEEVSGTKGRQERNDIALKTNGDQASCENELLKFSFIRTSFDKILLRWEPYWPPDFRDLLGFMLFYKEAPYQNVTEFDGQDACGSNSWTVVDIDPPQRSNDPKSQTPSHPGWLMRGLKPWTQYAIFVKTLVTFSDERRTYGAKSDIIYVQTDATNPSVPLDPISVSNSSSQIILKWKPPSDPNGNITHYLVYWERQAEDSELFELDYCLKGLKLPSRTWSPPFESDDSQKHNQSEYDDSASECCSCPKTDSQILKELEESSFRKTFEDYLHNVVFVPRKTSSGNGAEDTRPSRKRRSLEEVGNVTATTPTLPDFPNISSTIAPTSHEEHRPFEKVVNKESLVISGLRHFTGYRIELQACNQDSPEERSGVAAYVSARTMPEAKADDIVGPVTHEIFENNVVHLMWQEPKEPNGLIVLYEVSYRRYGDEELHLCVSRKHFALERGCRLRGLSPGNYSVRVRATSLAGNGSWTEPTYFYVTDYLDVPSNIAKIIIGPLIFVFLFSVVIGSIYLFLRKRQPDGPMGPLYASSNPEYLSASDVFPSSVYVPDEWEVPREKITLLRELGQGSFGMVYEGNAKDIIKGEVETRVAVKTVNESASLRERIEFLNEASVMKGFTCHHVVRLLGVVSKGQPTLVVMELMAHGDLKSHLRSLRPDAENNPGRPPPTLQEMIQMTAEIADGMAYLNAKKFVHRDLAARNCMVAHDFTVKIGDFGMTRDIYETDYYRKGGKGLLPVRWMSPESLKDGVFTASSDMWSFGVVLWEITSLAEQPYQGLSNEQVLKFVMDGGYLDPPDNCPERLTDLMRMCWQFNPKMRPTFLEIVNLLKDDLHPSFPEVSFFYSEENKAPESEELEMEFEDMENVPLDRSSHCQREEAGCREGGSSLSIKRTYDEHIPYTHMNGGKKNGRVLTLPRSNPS
Ends that are not written are not given here.
readout: relative affinity

{"columns": ["binder", "measured result"],
 "data": [
  ["SLEEEWAQVECEVYERGCPSESFYDWFERQL [S696]", 0.2],
  ["SLEEEWAQIEAEVWGRGAPSESFYDWFERQLG [S574]", 2],
  ["Ac-SLEEEWAQIQCEVWGRGCPSESFYDWFERQLG (cysteine pairing not given here) [S671]", 65],
  ["Ac-SLEEEWAQIQCEVWGRGCPSESFYGWFERQL (cysteine pairing not given here) [S667]", 112],
  ["Ac-SLEEEWAQIQCEVWGRGCPSESFYDWFERQL (cysteine pairing not given here) [S636]", 79],
  ["Ac-SLEEEWAQIECEVWGRGCPSEGFYNAIELLS (cysteine pairing not given here) [S726]", 7.7],
  ["{MeO‑PEG5000}-SLEEEWAQIECEVYGRGCPSESFYDWFERQL (cysteine pairing not given here) [S660]", 9]
]}

(A) SLEEEWAQIECEVYGRGCPSVRGFQGGTVWPGYEWLRNAAKK [S626]
(B) Ac-SLEEEWAQIQCEVWGRGCPSESFYGWFERQLG (cysteine pairing not given here) [S733]
Task: Which one would you say has the larger relative affinity value: A , or B ? Record your answer as the label of the chosen record.
Result: B
